Reported concentration at 2 h values are given for each entry in this list.
Protocol Text: Drug level in brain of Sprague-Dawley rat at 10 mg/kg, po administered as single dose via gavage measured at 2 hrs by LC-MS/MS analysis
Assay type: ADME, organism-based
Condition Description: read-out: Drug uptake

- Molecule: "O=C(N[C@H]1CC/C(=C\\c2cccc(Oc3ccc(C(F)(F)F)cn3)c2)CC1)c1cccnc1 (centres undefined)"
  concentration at 2 h: "6.1 µM"
- Molecule: "Nc1ncc(C(=O)N[C@H]2CC/C(=C\\c3cccc(Oc4ccc(C(F)(F)F)cn4)c3)CC2)cn1 (centres undefined)"
  concentration at 2 h: "6.5 µM"
- Molecule: "Nc1ccc(C(=O)N[C@H]2CC/C(=C\\c3cccc(Oc4ccc(C(F)(F)F)cn4)c3)CC2)cn1 (centres undefined)"
  concentration at 2 h: "5.1 µM"
- Molecule: "Cc1cc(C(=O)N[C@H]2CC/C(=C\\c3cccc(Oc4ccc(C(F)(F)F)cn4)c3)CC2)cnc1N (centres undefined)"
  concentration at 2 h: "2 µM"

###

Reported concentration at 4 h values are given for each entry in this list.
Protocol Text: Drug level in brain of Sprague-Dawley rat at 10 mg/kg, po administered as single dose via gavage measured at 4 hrs by LC-MS/MS analysis
Assay type: ADME, organism-based
Condition Description: read-out: Drug uptake

- Molecule: "Nc1ccc(C(=O)N[C@H]2CC/C(=C\\c3cccc(Oc4ccc(C(F)(F)F)cn4)c3)CC2)cn1 (centres undefined)"
  Unit String: "µM"
  concentration at 4 h: 4.5
- Molecule: "O=C(N[C@H]1CC/C(=C\\c2cccc(Oc3ccc(C(F)(F)F)cn3)c2)CC1)c1cccnc1 (centres undefined)"
  Unit String: "µM"
  concentration at 4 h: 6
- Molecule: "Cc1cc(C(=O)N[C@H]2CC/C(=C\\c3cccc(Oc4ccc(C(F)(F)F)cn4)c3)CC2)cnc1N (centres undefined)"
  Unit String: "µM"
  concentration at 4 h: 3.1
- Molecule: "Nc1ncc(C(=O)N[C@H]2CC/C(=C\\c3cccc(Oc4ccc(C(F)(F)F)cn4)c3)CC2)cn1 (centres undefined)"
  Unit String: "µM"
  concentration at 4 h: 6.3

###

Reported concentration at 24 h values are given for each entry in this list.
Protocol Text: Drug level in liver of Sprague-Dawley rat at 10 mg/kg, po administered as single dose via gavage measured at 24 hrs by LC-MS/MS analysis
Format: ADME, organism-based
Condition Description: read-out: Drug uptake
Recorded Endpoint: concentration at 24 h (µM)

- Molecule: "O=C(N[C@H]1CC/C(=C\\c2cccc(Oc3ccc(C(F)(F)F)cn3)c2)CC1)c1cccnc1 (centres undefined)"
  Recorded Endpoint: "concentration at 24 h"
  Measured Number: 7.7
- Molecule: "Nc1ccc(C(=O)N[C@H]2CC/C(=C\\c3cccc(Oc4ccc(C(F)(F)F)cn4)c3)CC2)cn1 (centres undefined)"
  Recorded Endpoint: "concentration at 24 h"
  Measured Number: 33
- Molecule: "Nc1ncc(C(=O)N[C@H]2CC/C(=C\\c3cccc(Oc4ccc(C(F)(F)F)cn4)c3)CC2)cn1 (centres undefined)"
  Recorded Endpoint: "concentration at 24 h"
  Measured Number: 23
- Molecule: "Cc1cc(C(=O)N[C@H]2CC/C(=C\\c3cccc(Oc4ccc(C(F)(F)F)cn4)c3)CC2)cnc1N (centres undefined)"
  Recorded Endpoint: "concentration at 24 h"
  Measured Number: 22
